Target: Human immunodeficiency virus type 1 reverse transcriptase (Human immunodeficiency virus 1) (UniProt Q72547)
Assay: Inhibition of HIV-1 reverse transcriptase assessed as reduction in biotin-dUTP incorporation in to cDNA chain at 0.267 uM in presence of DIG-dUTP, biotin-dUTP and dTTP measured after 1 hr by ELISA relative to control
observed-property: inhibition (%)
Field format: number, assumed %, no unit text.

Below are worked cases with known answers.
{"smiles-record": "Cc1cc(-c2cn(Cc3ccc(Cl)cc3)nn2)cc(C)c1Oc1nc(NC2CCN(Cc3ccc(S(N)(=O)=O)cc3)CC2)nc2ccsc12", "inhibition (%)": 70.8}
{"smiles-record": "Cc1cc(C#N)cc(C)c1Oc1nc(NC2CCN(Cc3cn(CC(=O)N4CCOCC4)nn3)CC2)nc2ccsc12", "inhibition (%)": 69.7}

Lookup: Which inhibition value belongs to Cc1cc(C#N)cc(C)c1Oc1nc(NC2CCN(C(=O)c3cn(CC(=O)N4CCOCC4)nn3)CC2)nc2ccsc12 ?
Found: 71.8

Origin of the recorded values: ChEMBL document CHEMBL4680237
